Source listed as patent US20210122826A1.

Reported MFI normalized to WT values are given for each entry in this list.
Target: T1, Human Clec7A (human, UniProt Q9BXN2 1-247)
T1 construct: also called hClec7A
T1 sequence: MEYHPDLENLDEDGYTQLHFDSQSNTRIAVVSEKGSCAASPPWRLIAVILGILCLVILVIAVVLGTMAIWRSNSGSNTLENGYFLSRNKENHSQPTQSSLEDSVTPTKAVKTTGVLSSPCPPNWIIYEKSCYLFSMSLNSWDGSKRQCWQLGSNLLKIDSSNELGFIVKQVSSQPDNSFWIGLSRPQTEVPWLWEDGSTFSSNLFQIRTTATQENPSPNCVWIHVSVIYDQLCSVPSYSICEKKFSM
Test: flow, Jurkat, 100 nM Ab

Illustrative cases are given below, each with its answer.
*Q* Look up MFI normalized to WT: KW9.3.3 (antibody, V domains shown) VH: EVQLVESGGGLVQPGGSLRLSCAASGFTFSSYAMSWVRQAPGKGLEWVSAISGSGGRTYYADSVKGRFTISRDNSKNTLYLQMNSLRAEDTAMYYCARGPGYMYLYGDSFFEYWGQGTLVTVSS VL: DIQMAQSPSSLSASVGDRVTITCRASQGISSYLNWYQQKPGKAPKLLIYAASSLQSGVPSRFSGSGYGTDFTLTISSLQPEDFATYYCQQSYSTPLTFGQGTKVEIK
*A* 1.03

*Q* Look up MFI normalized to WT: KW7.3.7 (antibody, V domains shown) VH: EVQLVESGGGLVQPGGSLRLSCAASGFTFSSYAMSWVRQAPGKGLEWVSATSGSGGSTYYADSAKGRFTISRDNSKNTLYLQMNSLRAEDTAVYYCARGGYLPDAFDYWGRGTLVTVSS VL: DIQMTQSPSSLSASVGDRVTITCWASQSISSYLNWYQQEPGKAPKLLIYAASSLQSGVPSRFSGSGSGTDFTLTISSLQPEDFATYYCQQTYSTPLTFGQGTKVEIK
*A* 1.18

*Q* Look up MFI normalized to WT: KW1.3.12 (antibody, human IgG1, V domains shown) VH: EVQLVESGGGLVQPGGSLRLSCAASGFTFSSYAMSWVRQAPGKGLEWVSTISGSGGSTYYADSVKGRFTISRDNSRNTLYLQMNSLRAEDTAVYYCARGGLIPSGFDYWGQGTLVTVSS VL: DIQMTQSPSSLSASVGDRVTITCRASQSISSYLNWYQQKPGKAPKLLIYAASSLLSGVPSRFSGSGSGTDFTLTISSLQPEDFATYYCQQTYSAPLTFGQGTKVEIK
*A* 1.38

Continue with the binder presented below.
*Q* Look up MFI normalized to WT: KW1.2.1 (antibody, V domains shown) VH: EVQLVESGGGLVQPGGSLRLSCAASGSTFSSYAMSWVRQAPGKGLEWVSTISGSGGSTYYADSVKGRFTISRDNSRNTLYLQMNSLRAEDTAVYYCARGGLIPSGFDYWGQGTLVTVSS VL: DIQMTQSPSSPSASVGDRVTITCRASQSISSYLNWYQQKPGKAPKLLIYAASSLLSGVPSRFSGSGSGTDFTLTISSLQPEDFATYYCQQTYSTPLTFGQGTKVEIK
*A* 1.25
